Entries and their % Payload Released
STUDY SYSTEM: papain (Carica papaya)
Sequence (P00784 134-345): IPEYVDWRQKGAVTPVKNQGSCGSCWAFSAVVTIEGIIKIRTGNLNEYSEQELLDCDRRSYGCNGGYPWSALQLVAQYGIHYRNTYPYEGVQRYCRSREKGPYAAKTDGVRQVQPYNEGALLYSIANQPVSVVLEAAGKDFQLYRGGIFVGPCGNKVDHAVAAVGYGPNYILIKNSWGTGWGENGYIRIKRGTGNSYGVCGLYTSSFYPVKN
ASSAY DETAILS: Papain digestion 2 of linker-payload compounds, in vitro payload release
Assay type: biochemical
REPORTED CONDITIONS: 10 μM compound, papain 2 molar equivalents, PBS pH 7.4, 5% DMA, room temperature, 2 hours
Where a SMILES comes first, the peptide text is derived from it. The star is where a group is joined. X1 = CSCCc1ccc(NC(=O)NCc2ccc3c(c2)CN(C2CCC(=O)N(CN*)C2=O)C3=O)cc1Cl; Hexanoyl(6-maleimido) = O=C1C=CC(=O)N1CCCCCC(=O)*
Number only, in %; omit the unit.

Observe how each entry below is paired with its result.
Cn1cc(-c2cc(NC(=O)CCCCC(=O)NCCCCNc3cccc4c3C(=O)N(C3CCC(=O)N(CNC(=O)CNC(=O)[C@H](Cc5ccccc5)NC(=O)CNC(=O)CNC(=O)CCCCCN5C(=O)C=CC5=O)C3=O)C4=O)ccc2Oc2ccc(F)cc2F)c2cc[nH]c2c1=O.O=C(O)C(F)(F)F (stereo partly drawn) [Compound (XL)] | 90.2
CNCCOCCc1ccc(NC(=O)NCc2ccc3c(c2)CN(C2CCC(=O)N(CNC(=O)CNC(=O)[C@H](Cc4ccccc4)NC(=O)CNC(=O)CNC(=O)CCCCCN4C(=O)C=CC4=O)C2=O)C3=O)cc1Cl (stereo partly drawn) [Compound (XVIII)] | 97.8
O=C(CCCCCN1C(=O)C=CC1=O)NCC(=O)NCC(=O)N[C@@H](Cc1ccccc1)C(=O)NCC(=O)NCC(=O)NCN1C(=O)CCC(N2Cc3c(C#CCCCNC(=O)c4ccc(NC(=O)[C@@H]5NC6(CCCCC6)[C@@]6(C(=O)Nc7cc(Cl)ccc76)[C@H]5c5cccc(Cl)c5F)cc4)cccc3C2=O)C1=O (stereo partly drawn) [Compound (XII)] | 9.4
N#Cc1ccc(O[C@H]2CC[C@H](NC(=O)c3ccc(N4CCC(CN5CCN(c6cc7c(cc6F)C(=O)N(C6CCC(=O)N(CNC(=O)CNC(=O)CNC(=O)[C@H](Cc8ccccc8)NC(=O)CNC(=O)CNC(=O)CCCCCN8C(=O)C=CC8=O)C6=O)C7=O)CC5)CC4)nn3)CC2)cc1Cl (stereo partly drawn) [Compound (XV)] | 5.8
CSCCc1ccc(NC(=O)NCc2ccc3c(c2)CN(C2CCC(=O)N(CNC(=O)CNC(=O)CNC(=O)[C@H](Cc4ccccc4)NC(=O)CNC(=O)CNC(=O)CCCCCN4C(=O)C=CC4=O)C2=O)C3=O)cc1Cl (stereo partly drawn) [Compound (XVII)] ({Hexanoyl(6-maleimido)}-GGFGG-X1) | 10.7

Below: the item to evaluate.
% Payload Released recorded for this compound, Cc1sc2c(c1C)C(c1ccc(Cl)cc1)=N[C@@H](CC(=O)NCCCCCC(=O)NCc1cccc3c1C(=O)N(C1CCC(=O)N(CNC(=O)CNC(=O)CNC(=O)[C@H](Cc4ccccc4)NC(=O)CNC(=O)CNC(=O)CCCCCN4C(=O)C=CC4=O)C1=O)C3=O)c1nnc(C)n1-2 (stereo partly drawn) [Compound (XIV)] , is 11.6
